Values compiled from paper PMC6271825.

Where a name gives a salt, the structure may show the parent alone.
Catalogue of compounds with associated melting point
parameter: melting point

compound="Clc1ccc(N2CCN(CCc3ccc(COc4ccc5c(c4)OCO5)cc3)CC2)cc1 (as salt: HCl)" measured="164 to 165 °C"
compound="Clc1cccc(N2CCN(CCc3ccc(COc4ccc5c(c4)OCO5)cc3)CC2)c1 (as salt: HCl)" measured="177 to 178 °C"
compound="Fc1ccccc1N1CCN(CCc2ccc(COc3ccc4c(c3)OCO4)cc2)CC1 (as salt: HCl)" measured="187 to 188 °C"
compound="Clc1ccccc1N1CCN(CCc2ccc(COc3ccc4c(c3)OCO4)cc2)CC1 (as salt: HCl)" measured="176 to 177 °C"
compound="c1ccc(CN2CCN(CCc3ccc(COc4ccc5c(c4)OCO5)cc3)CC2)cc1 (as salt: HCl)" measured="177 to 178 °C"
compound="N#Cc1ccc(N2CCN(CCc3ccc(COc4ccc5c(c4)OCO5)cc3)CC2)c(F)c1 (as salt: HCl)" measured="182 to 183 °C"
compound="Brc1ccc(N2CCN(CCc3ccc(COc4ccc5c(c4)OCO5)cc3)CC2)cc1 (as salt: HCl)" measured="173 to 174 °C"
compound="c1ccc(C2CCN(CCc3ccc(COc4ccc5c(c4)OCO5)cc3)CC2)cc1 (as salt: HCl)" measured="183 to 184 °C"
compound="COc1ccccc1N1CCN(CCc2ccc(COc3ccc4c(c3)OCO4)cc2)CC1 (as salt: HCl)" measured="173 to 174 °C"
compound="CC(=O)c1ccc(N2CCN(CCc3ccc(COc4ccc5c(c4)OCO5)cc3)CC2)cc1 (as salt: HCl)" measured="183 to 184 °C"
compound="c1cnc(N2CCN(CCc3ccc(COc4ccc5c(c4)OCO5)cc3)CC2)nc1 (as salt: HCl)" measured="181 to 182 °C"
compound="Cc1ccccc1N1CCN(CCc2ccc(COc3ccc4c(c3)OCO4)cc2)CC1 (as salt: HCl)" measured="202 to 203 °C"
compound="COc1cccc(N2CCN(CCc3ccc(COc4ccc5c(c4)OCO5)cc3)CC2)c1 (as salt: HCl)" measured="171 to 172 °C"
compound="COc1ccc(N2CCN(CCc3ccc(COc4ccc5c(c4)OCO5)cc3)CC2)cc1 (as salt: HCl)" measured="174 to 175 °C"
compound="OC1(c2ccccc2)CCN(CCc2ccc(COc3ccc4c(c3)OCO4)cc2)CC1 (as salt: HCl)" measured="194 to 195 °C"
compound="FC(F)(F)c1ccc(N2CCN(CCc3ccc(COc4ccc5c(c4)OCO5)cc3)CC2)cc1 (as salt: HCl)" measured="176 to 177 °C"
compound="Clc1cccc(N2CCN(CCc3ccc(COc4ccc5c(c4)OCO5)cc3)CC2)c1Cl (as salt: HCl)" measured="177 to 178 °C"
compound="Cc1cccc(N2CCN(CCc3ccc(COc4ccc5c(c4)OCO5)cc3)CC2)c1 (as salt: HCl)" measured="171 to 172 °C"
compound="Fc1ccc(N2CCN(CCc3ccc(COc4ccc5c(c4)OCO5)cc3)CC2)cc1 (as salt: HCl)" measured="196 to 197 °C"
